molecular target: 2444b CXCR2/CXCR4 chimera (human) (UniProt P25025); experiment: flow cytometry, scFv-Fc on transfected 293T cells, FITC anti-human IgG
Sequence (P25025 other isoform, or with tags, fused parts or gaps mutant limits assumed): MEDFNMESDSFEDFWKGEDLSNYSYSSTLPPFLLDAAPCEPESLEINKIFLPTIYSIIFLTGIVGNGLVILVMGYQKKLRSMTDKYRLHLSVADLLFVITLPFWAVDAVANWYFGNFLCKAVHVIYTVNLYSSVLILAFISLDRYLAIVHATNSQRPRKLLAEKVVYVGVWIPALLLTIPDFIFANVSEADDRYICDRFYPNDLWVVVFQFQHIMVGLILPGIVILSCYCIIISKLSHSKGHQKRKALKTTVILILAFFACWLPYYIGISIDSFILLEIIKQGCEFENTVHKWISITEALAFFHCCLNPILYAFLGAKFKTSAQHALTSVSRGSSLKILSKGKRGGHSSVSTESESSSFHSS
property_name: reactivity (MFI of chimeric receptor/MFI of wild type CXCR4 x 100%)
Report only the number, with the unit % understood.

Qu. Need reactivity (MFI of chimeric receptor/MFI of wild type CXCR4 x 100%), item 33-Fc (Fc fusion, part only; not given: linker and human IgG1 hinge-Fc, not shown: another chain or arm of the molecule; a dimerising Fc or GST; small tags and cut ends) VH: QVTLKESGGGVVQPGRSLRLSCAASGFTFTNYGLHWVRQAPGKGLEWVAVISHDGTKKYYADSVKGRFTISRDSSENTLYLQMNSLRPEDSALYYCARDGGYCSGGRCYSYGMDVWGQGTTVTVSS VL: QSVLTQPPSASGTPGQRVTISCSGSRSNIGSNTVNWYQQLPGTAPKLLIYTNNQRPSGVPDRFSGSKSGTSASLAITGLQAEDEADYYCLSFDSSLTSYVFGTGTKVTVL
Ans. 0.7
